Test: in vitro
Details: human
Protocol: Cells exposed to compounds or standard drug were incubated 72 h at 37 °C and 5% of CO2. Cytotoxic activity of each compound was determined according to the effect on the cell viability by the MTT microenzymatic method in which 3-(4,5-dimethylthiazol-2-yl)-2,5-diphenyltetrazolium bromide is reduced to a purple product named formazan by mitochondrial enzyme succinate dehydrogenase. […] Non-specific absorbance was corrected by subtracting absorbance (O.D.) of the blank. […]
readout-name: CC50 at 72 h (µM)
// return numeric value only (unit: µM, not printed)

// worked examples, CC50 at 72 h included
| compound | endpoint-value |
| --- | --- |
| NC(=O)N/N=C1\CCSc2ccccc21 | 637 |
| O=C(N/N=C1\CC(c2ccccc2)Sc2ccccc21)c1ccccc1 (centres unmarked) | 529 |

Now look at this one.
# input CC50 at 72 h lookup needed for NC(=O)N/N=C1\CC(c2ccccc2)Sc2ccccc21 (centres unmarked) , thanks.
# output 100
